- TARGET SYSTEM: T1, PKC-βI (purified isoform) (Homo sapiens (Human), UniProt P05771 2-671)
- T1 construct: also called PKC-beta I; PKC beta 1
- T1 sequence (P05771 2-671 limits assumed): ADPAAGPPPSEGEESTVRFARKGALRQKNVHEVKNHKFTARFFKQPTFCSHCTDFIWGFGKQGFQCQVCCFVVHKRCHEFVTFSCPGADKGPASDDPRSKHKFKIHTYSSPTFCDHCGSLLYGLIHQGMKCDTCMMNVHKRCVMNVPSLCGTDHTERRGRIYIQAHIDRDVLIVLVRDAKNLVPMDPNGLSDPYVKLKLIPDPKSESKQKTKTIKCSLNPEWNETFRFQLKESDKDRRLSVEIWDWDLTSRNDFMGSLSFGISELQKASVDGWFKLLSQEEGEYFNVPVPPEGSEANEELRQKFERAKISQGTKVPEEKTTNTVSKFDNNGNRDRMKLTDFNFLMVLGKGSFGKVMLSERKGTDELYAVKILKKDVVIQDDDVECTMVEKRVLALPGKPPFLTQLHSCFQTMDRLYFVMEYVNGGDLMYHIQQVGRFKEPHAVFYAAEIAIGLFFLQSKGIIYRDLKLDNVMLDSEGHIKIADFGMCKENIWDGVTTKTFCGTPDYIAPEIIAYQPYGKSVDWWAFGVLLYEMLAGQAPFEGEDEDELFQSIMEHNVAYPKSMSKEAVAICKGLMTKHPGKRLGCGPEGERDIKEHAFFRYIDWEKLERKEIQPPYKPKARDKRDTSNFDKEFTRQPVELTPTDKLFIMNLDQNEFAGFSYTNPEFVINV
- PROTOCOL DESCRIPTION: competitive ELISA, coated purified PKC-βI, vs anti-PKC βI (SC-209); PRE 50 µM
- Method: Greiner 96 well ELISA plates were coated with the appropriate PKC isoform diluted in PBSN (PBS with Calcium/Magnesium+0.05% Sodium azide w/w). 50 μL/well at 250 ng/mL was used. Control wells contained PBSN only. Plates were incubated overnight at 4° C. The plates were washed 3 times with 200 μL of dH₂O per well, then 100 μL of blocking solution was added per well and the plate incubated for 1 h at 37° C. […]
Catalogue of binders with associated relative binding capacity (100-%n, DMSO subtracted)
RESULT TYPE: relative binding capacity (100-%n, DMSO subtracted) (%)

>>> test_value("Ac-ISIGILNQADK-NH2 (also called peptide PRE 10) [PRE 10]")
3.77
>>> test_value("Ac-KDAQNLIGISI-NH2 (also called peptide PRE 4) [PRE 4]")
6.02
>>> test_value("Ac-RDAQNLIGISI-NH2 (also called peptide PRE 11) [PRE 11]")
9.86
>>> test_value("Ac-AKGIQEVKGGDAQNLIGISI-NH2 (also called peptide PRE 3) [PRE 3]")
26
>>> test_value("Ac-RDAQNLI-NH2 (Ac-RDAQNLI-NH2; also called peptide PRE 13) [PRE 13]")
0
>>> test_value("Ac-KDANQLIGISI-NH2 (also called peptide PRE 6) [PRE 6]")
0
>>> test_value("Ac-KDAQNLI-NH2 (Ac-KDAQNLI-NH2; also called peptide PRE 12) [PRE 12]")
0.79
>>> test_value("RRKKGGKDFVVKR (also called peptide PRE 1; peptide recognition element 1) [PRE 1]")
19.8
>>> test_value("Ac-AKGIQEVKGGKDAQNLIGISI-NH2 (also called peptide PRE 5) [PRE 5]")
0
